experiment: Fluorescence excitation/emission of the styryl dye library compounds; format: physicochemical; conditions: EX/EM peak no. 1
reportedProperty: EX(nm)
Write the value in nm as a bare number.

compound: CN(C)c1ccc(/C=C/C=C/c2cc[n+](C)c3ccccc23)cc1.[I-]
EX(nm): 530

compound: C[n+]1ccc(C=Cc2c[nH]c3ccccc23)cc1Br.[I-]
EX(nm): 460

compound: COc1cc(C=Cc2cccc[n+]2C)cc(OC)c1OC.[I-]
EX(nm): 380

compound: C[n+]1ccc(C=CCc2ccccc2)cc1.[I-]
EX(nm): 390

compound: COc1ccccc1C=Cc1cc[n+](C)c(Br)c1.[I-]
EX(nm): 400

compound: COc1ccc2c(ccc(C=CCc3ccccc3)[n+]2C)c1.[I-]
EX(nm): 460

compound: C[n+]1ccccc1C=Cc1ccc2c(c1)OCO2.[I-]
EX(nm): 340

compound: CCc1ccc(C=Cc2cc(OC)c(OC)cc2OC)[n+](C)c1.[I-]
EX(nm): 430

compound: COc1cc(C=Cc2cc[n+](C)cc2)cc(OC)c1OC.[I-]
EX(nm): 390

compound: COc1ccc2c(ccc(C=Cc3ccc(OC)c4ccccc34)[n+]2C)c1.[I-]
EX(nm): 460

Next, consider the following molecule.
EX(nm) recorded for this molecule, `COc1ccc2c(ccc(/C=C/c3ccc4ccccc4c3)[n+]2C)c1.[I-]` , is 420

====

Some compounds, each annotated with its measured EM(nm).
assay: Fluorescence excitation/emission of the styryl dye library compounds; format: physicochemical; conditions: EX/EM peak no. 1
Kindly provide the numeric value in nm only, without the unit symbol.

// solved cases for EM(nm) follow
compound: C(=Cc1c2ccccc2cc2ccccc12)c1cc[n+](C23CC4CC(CC(C4)C2)C3)cc1.[Br-]
resultUnits: nm
number: 610

compound: C[n+]1ccc(/C=C/c2c[nH]c3ccccc23)c2ccccc21.[I-]
resultUnits: nm
number: 610

compound: COc1ccc(C=Cc2cccc[n+]2C)c2ccccc12.[I-]
resultUnits: nm
number: 530

EM(nm) for `C[n+]1ccc(C=Cc2ccc3ccccc3c2)c2ccccc21.[I-]` is 550

The measured EM(nm) associated with `C[n+]1ccc(C=CC=Cc2ccccc2[N+](=O)[O-])cc1.[I-]` reads 700

Data point: `C[n+]1ccc(C=Cc2ccc(OCc3ccccc3)c(OCc3ccccc3)c2)cc1.[I-]` ; EM(nm) = 540

Entry under test: `COc1ccc(C=Cc2cccc[n+]2C)cc1O.[I-]` . Its EM(nm) was 500

Just so you know, measured EM(nm) for `CN(C)c1ccc(C=Cc2cc[n+](C)cc2)cc1.[I-]` came out at 600

The compound identified as `CN(C)c1ccc(C=Cc2ccc3ccccc3[n+]2C)c2ccccc12.[I-]` registered its EM(nm) at 620

The compound identified as `CCc1ccc(C=Cc2c(OC)ccc3ccccc23)[n+](C)c1.[I-]` registered its EM(nm) at 510

Per the record, `COc1ccc2c(ccc(C=Cc3cccc4ccccc34)[n+]2C)c1.[I-]` has EM(nm) of 610

According to the records, this compound `Fc1c(F)c(F)c(C=Cc2cc[n+](C34CC5CC(CC(C5)C3)C4)cc2)c(F)c1F.[Br-]` displays EM(nm) of 580

====

Listed here: items and their measured EX(nm).
assay: Fluorescence excitation/emission of the styryl dye library compounds; assay type: physicochemical; conditions: EX/EM peak no. 1

Consider the worked cases shown below.
compound: COc1ccc(C=Cc2cc[n+](C34CC5CC(CC(C5)C3)C4)cc2)c2ccccc12.[Br-]
EX(nm): 360-450 nm
//
compound: C[n+]1ccc(C=Cc2ccc3ccccc3c2)cc1.[I-]
EX(nm): 360-420 nm

Consider the record given below.
# EX(nm) of `Cc1cccc(C=Cc2ccc(OCc3ccccc3)c(OCc3ccccc3)c2)[n+]1C.[I-]` = 390 nm

====

Collected EM(nm) values appear next to each entry.
test: Fluorescence excitation/emission of the styryl dye library compounds; format: physicochemical; details: EX/EM peak no. 1
All answers are understood in nm, so give the number only.

// solved cases for EM(nm) follow
compound: COc1ccc(C=Cc2cc[n+](C)c3ccccc23)cc1OC.[I-] [Compound G11]
EM(nm): 600
--
compound: CC(=O)Nc1ccc(C=Cc2cc[n+](C)cc2)cc1.[I-] [Compound A18]
EM(nm): 610
--
compound: COc1ccc(C=Cc2cc[n+](C)c3ccccc23)c2ccccc12.[I-] [Compound G14]
EM(nm): 620
--
compound: CCc1ccc(C=Cc2cc(OC)c(OC)cc2OC)[n+](C)c1.[I-] [Compound E38]
EM(nm): 560
--
compound: Cc1cccc(C=Cc2cccc3ccccc23)[n+]1C.[I-] [Compound L32]
EM(nm): 520

EM(nm) in this record for COc1ccc2c(ccc(C=Cc3ccc4c(c3)OCO4)[n+]2C)c1.[I-] [Compound I39] : 500

compound COc1ccccc1C=Cc1cc[n+](C)c(Br)c1.[I-] [Compound F9] , EM(nm) observed: 520

For this compound ( COc1cc(C=Cc2ccc3ccccc3[n+]2C)cc(OC)c1OC.[I-] [Compound H13] ), measured EM(nm) is 590

// CN(C)c1ccc(C=Cc2cccc[n+]2C)c2ccccc12.[I-] [Compound C27] : EM(nm) value = 620

====

Each entry below lists one item and its recorded EM(nm) value.
experiment: Fluorescence excitation/emission of the styryl dye library compounds; type: physicochemical; settings: EX/EM peak no. 1
Respond with the bare value in nm.

Before answering, review these 5 worked examples.
compound: COc1ccc2c(ccc(C=Cc3c(OC)ccc4ccccc34)[n+]2C)c1.[I-]
reportedProperty: EM(nm)
number: 550

compound: Cc1cccc(/C=C/c2ccccn2)[n+]1C.[I-]
reportedProperty: EM(nm)
number: 620

compound: COc1ccc2c(ccc(C=CC=Cc3ccccc3[N+](=O)[O-])[n+]2C)c1.[I-]
reportedProperty: EM(nm)
number: 530

compound: C[n+]1ccc(C=Cc2ccc3ccccc3c2)cc1.[I-]
reportedProperty: EM(nm)
number: 600

compound: C[n+]1ccc(C=Cc2c[nH]c3ccccc23)cc1Br.[I-]
reportedProperty: EM(nm)
number: 550

EM(nm) measured on `C[n+]1ccc(C=Cc2ccc(OCc3ccccc3)c(OCc3ccccc3)c2)c2ccccc21.[I-]` = 590

EM(nm) in this record for `COc1ccc(C=Cc2ccc3ccccc3[n+]2C)cc1OC.[I-]` : 570

Reported EM(nm) for `COc1ccc2ccccc2c1C=Cc1ccc2ccccc2[n+]1C.[I-]` was 580

# EM(nm) of `O=[N+]([O-])c1ccc(C=Cc2cc[n+](C34CC5CC(CC(C5)C3)C4)cc2)cc1.[Br-]` = 600

Measured EM(nm), `COc1ccc2c(ccc(C=Cc3ccc4c(c3)Cc3ccccc3-4)[n+]2C)c1.[I-]` : 660

====

test: Fluorescence excitation/emission of the styryl dye library compounds; format: physicochemical; details: EX/EM peak no. 1
Overview of recorded EM(nm) for various compounds
Give just the number in nm; leave the unit off.

Answered cases to consult:
compound: COc1ccc2ccccc2c1C=Cc1cc[n+](C)c2ccccc12.[I-] [Compound G23]
reportedProperty: EM(nm)
number: 610
--
compound: CN(C)c1ccc(C=Cc2cc[n+](C34CC5CC(CC(C5)C3)C4)cc2)cc1.[Br-] [Compound B19]
reportedProperty: EM(nm)
number: 610
--
compound: C[n+]1c(/C=C/c2c(F)c(F)c(F)c(F)c2F)ccc2ccccc21.[I-] [Compound H31]
reportedProperty: EM(nm)
number: 610

The compound listed as COc1cc(OC)c(OC)cc1C=Cc1cc[n+](C)c(Br)c1.[I-] [Compound F38] shows EM(nm) equal to 540

Record COc1ccc2ccccc2c1C=Cc1cc[n+](C)cc1.[I-] [Compound A23] . Reported EM(nm): 540

Notebook: Oc1ccc(C=Cc2cc[n+](C34CC5CC(CC(C5)C3)C4)cc2)cc1.[Br-] [Compound B16] , EM(nm) read as 590

For reference, reported EM(nm) for COc1cc(C=Cc2cc[n+](C)c3ccccc23)cc(OC)c1OC.[I-] [Compound G13] stands at 620

Lab note: measured EM(nm) of C(=Cc1ccc(OCc2ccccc2)c(OCc2ccccc2)c1)c1cc[n+](C23CC4CC(CC(C4)C2)C3)cc1.[Br-] [Compound B12] was 530

Value of measured EM(nm) for the entry C[n+]1ccc(C=Cc2ccc3c(c2)OCO3)cc1.[I-] [Compound A39] : 540

====

test: Fluorescence excitation/emission of the styryl dye library compounds; type: physicochemical; conditions: EX/EM peak no. 1
In this section, each of the molecules is paired with its reported EX(nm).

compound: COc1cc(OC)c(OC)cc1C=Cc1cc[n+](C)c(-c2cc(C)ccn2)c1.[I-]
EX(nm): 380-500 nm
//
compound: Cc1ccnc(-c2cc(C=CC=Cc3ccc(N(C)C)cc3)cc[n+]2C)c1.[I-]
EX(nm): 550(broad) nm
//
compound: COc1ccc2c(ccc(C=Cc3ccccc3[N+](=O)[O-])[n+]2C)c1.[I-]
EX(nm): 420(broad) nm
//
compound: C[n+]1ccc(C=Cc2ccc(O)cc2)cc1.[I-]
EX(nm): 390-420 nm
//
compound: COc1ccc2ccccc2c1C=Cc1ccc2ccccc2[n+]1C.[I-]
EX(nm): 420-480 nm
//
compound: CN(C)c1ccc(/C=C/c2ccc3ccccc3[n+]2C)cc1.[I-]
EX(nm): 490(broad) nm
//
compound: C[n+]1ccc(/C=C/c2cccc([N+](=O)[O-])c2)c2ccccc21.[I-]
EX(nm): 450-550 nm
//
compound: Fc1ccccc1C=Cc1cc[n+](C23CC4CC(CC(C4)C2)C3)cc1.[Br-]
EX(nm): 400-420 nm

For record `Cc1ccnc(-c2cc(C=Cc3ccc(OCc4ccccc4)c(OCc4ccccc4)c3)cc[n+]2C)c1.[I-]` the listed EX(nm) is 350-470 nm

Kindly note the recorded EX(nm) for `COc1ccc2ccccc2c1C=Cc1cc[n+](C)c(-c2cc(C)ccn2)c1.[I-]` , which is 430-460 nm

Entry under test: `COc1ccc(C=Cc2cc[n+](C)c3ccccc23)cc1O.[I-]` . Its EX(nm) was 420-460 nm

The value of EX(nm) measured for the molecule `CN(C)c1ccc(C=CC=Cc2cc[n+](C)cc2)cc1.[I-]` turned out to be 460-490 nm
